The entries below are paired with their reported Kd.
biological target: T1, Human Factor P (human, UniProt P27918 29-469); assay: SET, solution equilibrium titration
T1 construct: Bought protein (Complement Technology cat# A139) in SET and Biacore; Factor P of human serum in the functional assays; also called FP; human FP
T1 sequence (P27918 29-469 limits assumed): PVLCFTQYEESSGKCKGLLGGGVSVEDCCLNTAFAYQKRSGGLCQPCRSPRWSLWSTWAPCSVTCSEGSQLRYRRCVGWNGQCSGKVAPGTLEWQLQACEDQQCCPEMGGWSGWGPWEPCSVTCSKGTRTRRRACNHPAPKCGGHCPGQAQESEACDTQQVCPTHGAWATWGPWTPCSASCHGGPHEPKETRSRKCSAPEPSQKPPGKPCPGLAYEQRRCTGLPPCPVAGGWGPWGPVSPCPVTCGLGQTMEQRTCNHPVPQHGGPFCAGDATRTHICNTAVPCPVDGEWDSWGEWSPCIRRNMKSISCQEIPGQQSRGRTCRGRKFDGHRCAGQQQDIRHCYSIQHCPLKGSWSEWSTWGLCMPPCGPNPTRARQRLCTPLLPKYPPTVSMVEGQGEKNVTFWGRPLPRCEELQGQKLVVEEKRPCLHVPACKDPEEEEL
Record the value in pM, omitting the unit from your answer.

{"BINDER": "NVS965-S (Fab, V domains shown, NVS965 with heavy chain N30 replaced with serine) VH: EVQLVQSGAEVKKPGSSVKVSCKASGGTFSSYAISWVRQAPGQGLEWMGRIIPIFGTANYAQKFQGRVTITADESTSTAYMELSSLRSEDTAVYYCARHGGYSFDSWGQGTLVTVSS VL: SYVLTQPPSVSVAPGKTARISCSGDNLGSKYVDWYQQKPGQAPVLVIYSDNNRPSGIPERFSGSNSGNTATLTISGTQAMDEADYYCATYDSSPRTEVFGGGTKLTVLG", "Kd / pM": 51}
{"BINDER": "NVS808 (Fab, V domains shown) VH: EVQLVQSGAEVKKPGSSVKVSCKASGGTFSSYAISWVRQAPGQGLEWMGRIIPIFGTANYAQKFQGRVTITADESTSTAYMELSSLRSEDTAVYYCARHGGYIFDSWGQGTLVTVSS VL: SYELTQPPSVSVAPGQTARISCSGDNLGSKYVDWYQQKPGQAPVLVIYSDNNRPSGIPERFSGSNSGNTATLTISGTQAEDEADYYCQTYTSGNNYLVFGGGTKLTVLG", "Kd / pM": 107}

Consider NVS965 (Fab, V domains shown, Disulfide-bridged Fab; also called Fab NVS965) VH: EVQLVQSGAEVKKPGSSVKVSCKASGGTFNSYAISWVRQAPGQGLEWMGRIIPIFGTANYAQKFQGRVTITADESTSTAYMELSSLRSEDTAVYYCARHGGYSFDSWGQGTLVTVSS VL: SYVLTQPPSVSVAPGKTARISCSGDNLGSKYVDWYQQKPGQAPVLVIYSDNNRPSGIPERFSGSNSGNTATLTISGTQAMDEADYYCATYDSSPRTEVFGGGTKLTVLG . Its measured Kd is 36

All figures here come from patent US20130295102A1.
